Below are pIC50 measurements against Vascular endothelial growth factor receptor 1 (Homo sapiens) drawn from the literature.
pIC50: −log10 of the molar value.

Some compounds with recorded pIC50:
compound	pIC50
O=S(=O)(NCc1c[nH]c2ncccc12)c1cc(Cl)sc1Cl	≥ 5.00
COc1cc(Nc2ncnc(-n3c(Nc4ccc(F)cc4)nc4ccccc43)n2)cc(OC)c1OC	> 6.09
c1cc(Cc2c[nH]c3ncccc23)cc(OCCOC2CCCCO2)c1 (centres unmarked)	≥ 5.00
COc1cc(Cc2c[nH]c3ncc(Br)cc23)cc(OC)c1	≥ 5.00
CCN1CCC(Nc2ccc3c(c2)/C(=C(\c2cccc(N)c2)c2nc4ccccc4[nH]2)C(=O)N3)CC1	6.30 to 7.30

Query string: What reported pIC50 corresponds to COc1cc(Nc2ncnc(-n3ccc4c(OC)cccc43)n2)cc(OC)c1OC on Vascular endothelial growth factor receptor 1 (Homo sapiens)?
Result string: < 4.96

Query string: Kindly state the measured pIC50 obtained for COc1cc(Nc2ncnc(-n3c(NCc4cccc(Cl)c4)nc4ccccc43)n2)cc(OC)c1OC with Vascular endothelial growth factor receptor 1 (Homo sapiens).
Result string: > 6.11

Query string: Vascular endothelial growth factor receptor 1 (Homo sapiens) / pIC50 / CCOc1ccccc1C(O)c1c[nH]c2ncc(-c3cccnc3)cc12 (centres unmarked) : value?
Result string: ≥ 5.00

Query string: GET /values?readout=pIC50&system=Vascular endothelial growth factor receptor 1 (Homo sapiens)&item= NC(=O)c1ccc(-c2ccnc3[nH]cc(C(=O)c4cc(F)ccc4F)c23)cc1
Result string: ≥ 5.00

Query string: Notebook: pull reported pIC50 for Vascular endothelial growth factor receptor 1 (Homo sapiens), entry CCCS(=O)(=O)Nc1cccc(C(=O)c2c[nH]c3ncc(Br)cc23)c1C
Result string: ≥ 5.00

Query string: Provide the documented pIC50 with Vascular endothelial growth factor receptor 1 (Homo sapiens) as the system for COc1cc(Cc2c[nH]c3ncccc23)ccc1OCc1ccc(Cl)cc1F
Result string: ≥ 5.00

Query string: Form: Entry = COc1cc(Nc2ncnc(-n3c(NCc4cccc(Br)c4)nc4ccccc43)n2)cc(OC)c1OC | System = Vascular endothelial growth factor receptor 1 (Homo sapiens) | pIC50 = ____
Result string: 5.37 to 6.15

Query string: Form: Entry = COc1cc(Nc2ncnc(Nc3cc(C(C)(C)C)[nH]n3)n2)cc(OC)c1OC | System = Vascular endothelial growth factor receptor 1 (Homo sapiens) | pIC50 = ____
Result string: 5.06 to 5.22

====

Listing of pIC50 toward Vascular endothelial growth factor receptor 1 (Homo sapiens, UniProt P17948), each taken from a published source.
pIC50: −log10 of the molar value.

CCCCNC(=O)Nc1ccc(F)c(C(=O)c2c[nH]c3ncc(-c4cccnc4)cc23)c1 ≥ 5.00
COc1ccc(Nc2ncnc(Nc3cc(OC)c(OC)c(OC)c3)n2)cc1 > 5.98
CCCCS(=O)(=O)Nc1ccc(F)c(C(=O)c2c[nH]c3ncc(-c4cnn(C)c4)cc23)c1Cl ≥ 5.00

Now look at this one.
Query string: Could you tell me which pIC50 is on file for O=C(NCCN1CCOCC1)Nc1ccc(F)c(C(=O)c2c[nH]c3ncc(Cl)cc23)c1F ?
Result string: ≥ 5.00

====

Please find below IC50 data on Vascular endothelial growth factor receptor 1 (Homo sapiens, UniProt P17948) compiled from the literature.

COc1cc(Nc2ncnc(-n3c(N)nc4cc(Cl)ccc43)n2)cc(OC)c1OC 0.935 to 5.61 µM

Query string: Query (compound): COCCN1CCC(Nc2ccc3c(c2)/C(=C(\c2cccc(Cl)c2)c2nc4ccccc4[nH]2)C(=O)N3)CC1 ; field requested: IC50
Result string: 0.05 to 0.5 µM

Query string: Query (compound): Clc1ccc(Nc2cnc3[nH]ccc3c2)cc1 ; field requested: IC50
Result string: ≤ 10 µM

Query string: Entry Cc1cccc(-c2ccnc3[nH]cc(CNS(=O)(=O)C(F)(F)F)c23)c1 : reported IC50 = ?
Result string: ≤ 10 µM
